// data source = paper PMC7619385

Property: Target occupancy Average; scope: individual compounds
- SYSTEM TESTED: NLuc::LmxCLK1 (Leishmania mexicana)
- Sequence (E9AMP2 entry or part of it): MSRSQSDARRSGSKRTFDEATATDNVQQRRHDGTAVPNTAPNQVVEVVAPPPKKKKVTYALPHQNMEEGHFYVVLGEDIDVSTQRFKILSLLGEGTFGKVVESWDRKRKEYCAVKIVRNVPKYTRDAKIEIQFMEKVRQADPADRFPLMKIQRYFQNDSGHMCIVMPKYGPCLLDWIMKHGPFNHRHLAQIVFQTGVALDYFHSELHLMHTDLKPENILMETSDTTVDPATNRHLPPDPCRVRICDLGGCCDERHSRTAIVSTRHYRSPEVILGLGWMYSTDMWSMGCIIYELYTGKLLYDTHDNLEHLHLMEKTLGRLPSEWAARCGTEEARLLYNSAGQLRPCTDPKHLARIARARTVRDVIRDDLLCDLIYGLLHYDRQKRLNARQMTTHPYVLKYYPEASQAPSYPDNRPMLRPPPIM
- EXPERIMENTAL PROTOCOL: cell-based
- Format: cell-based
- MEASUREMENT PARAMETERS: 10 µM compound, tracer SV366, promastigotes, mean of two experiments

{"COMPOUND": "O=C(NCCO)c1cccc(-c2cc(Nc3ccc(OC(F)(F)F)cc3)ncn2)c1", "SYSTEM TESTED": "NLuc::LmxCLK1 (Leishmania mexicana)", "Target occupancy Average, %": -5.1}
{"COMPOUND": "N#C/C(=C/c1ccc(O)c(O)c1)C(=O)NCc1ccccc1", "SYSTEM TESTED": "NLuc::LmxCLK1 (Leishmania mexicana)", "Target occupancy Average, %": -17.8}
{"COMPOUND": "CC(C)N(CCC(=O)c1ccc2ccccc2c1)Cc1ccccc1.Cl [ZM 39923 HCl]", "SYSTEM TESTED": "NLuc::LmxCLK1 (Leishmania mexicana)", "Target occupancy Average, %": -9.3}
{"COMPOUND": "CN1CC[C@H](c2c(O)cc(O)c3c(=O)cc(-c4ccccc4Cl)oc23)[C@H](O)C1.Cl [Flavopiridol HCl]", "SYSTEM TESTED": "NLuc::LmxCLK1 (Leishmania mexicana)", "Target occupancy Average, %": -0.8}
{"COMPOUND": "C#Cc1cccc(Nc2ncnc3cc(OCCOC)c(OCCO)cc23)c1", "SYSTEM TESTED": "NLuc::LmxCLK1 (Leishmania mexicana)", "Target occupancy Average, %": -1.5}
{"COMPOUND": "COc1ccc2c(c1)c(C1=C(c3c[nH]c4ccccc34)C(=O)NC1=O)cn2CCCN(C)C", "SYSTEM TESTED": "NLuc::LmxCLK1 (Leishmania mexicana)", "Target occupancy Average, %": -12.6}
{"COMPOUND": "O=C1NC(=O)C(=Cc2ccc(-c3ccc(F)cc3)o2)S1", "SYSTEM TESTED": "NLuc::LmxCLK1 (Leishmania mexicana)", "Target occupancy Average, %": -1.2}
{"COMPOUND": "CC(C)(C)c1nc(-c2cccc(NS(=O)(=O)c3c(F)cccc3F)c2F)c(-c2ccnc(N)n2)s1", "SYSTEM TESTED": "NLuc::LmxCLK1 (Leishmania mexicana)", "Target occupancy Average, %": -3.6}
{"COMPOUND": "COc1cccc(-c2cc(=O)c3ccccc3o2)c1N", "SYSTEM TESTED": "NLuc::LmxCLK1 (Leishmania mexicana)", "Target occupancy Average, %": -8.6}
{"COMPOUND": "O=C(NCc1ccccc1)c1csc(Nc2ccncn2)n1", "SYSTEM TESTED": "NLuc::LmxCLK1 (Leishmania mexicana)", "Target occupancy Average, %": -1.1}
{"COMPOUND": "NC(=O)c1cccc(-c2cc(Nc3ccc(OC(F)(F)F)cc3)ncn2)c1", "SYSTEM TESTED": "NLuc::LmxCLK1 (Leishmania mexicana)", "Target occupancy Average, %": -11.3}
{"COMPOUND": "CNC(=O)c1cc(Oc2ccc(NC(=O)Nc3ccc(Cl)c(C(F)(F)F)c3)c(F)c2)ccn1", "SYSTEM TESTED": "NLuc::LmxCLK1 (Leishmania mexicana)", "Target occupancy Average, %": -4.6}
{"COMPOUND": "O=c1cc(-c2cccc3c2Sc2ccccc2S3)oc(N2CCOCC2)c1", "SYSTEM TESTED": "NLuc::LmxCLK1 (Leishmania mexicana)", "Target occupancy Average, %": -9.0}
{"COMPOUND": "Cc1[nH]c2ccccc2c1C1=C(NCCc2ccc(F)cc2)C(=O)N(C)C1=O", "SYSTEM TESTED": "NLuc::LmxCLK1 (Leishmania mexicana)", "Target occupancy Average, %": -7.4}
{"COMPOUND": "CC(C)n1nc(-c2ccc3oc(N)nc3c2)c2c(N)ncnc21", "SYSTEM TESTED": "NLuc::LmxCLK1 (Leishmania mexicana)", "Target occupancy Average, %": -0.3}
{"COMPOUND": "N[C@@H]1CCCN(c2c(/C=C3\\SC(=O)NC3=O)cccc2-c2ccccc2)C1", "SYSTEM TESTED": "NLuc::LmxCLK1 (Leishmania mexicana)", "Target occupancy Average, %": -1.4}

----------
- SYSTEM TESTED: LmxCLK1 (Leishmania mexicana, UniProt E9AMP2)
- Sequence (E9AMP2 1-422): as the sequence (E9AMP2 entry or part of it) above
- EXPERIMENTAL PROTOCOL: biochemical
- Format: binding
- MEASUREMENT PARAMETERS: DSF, 10 µM compound, 2 µM LmxCLK1, Run 1; read-out: ΔTm Run 1

{"COMPOUND": "Cn1cc(C2=C(c3ccc(Cl)cc3Cl)C(=O)NC2=O)c2ccccc21", "ΔTm at 10 µM / °C": 0.1}
{"COMPOUND": "C=CCc1ccc(O)c(-c2ccc(O)c(CC=C)c2)c1", "ΔTm at 10 µM / °C": -0.2}
{"COMPOUND": "CC1=C(C(=O)Nc2cc3cn[nH]c3cc2F)C(c2ccc(C(F)(F)F)cc2)CC(=O)N1 (stereo not shown) [GSK429286A]", "ΔTm at 10 µM / °C": 0.1}
{"COMPOUND": "COc1cc2nccc(Oc3ccc(NC(=O)Nc4cc(C)on4)c(Cl)c3)c2cc1OC", "ΔTm at 10 µM / °C": 0.2}
{"COMPOUND": "COc1ccc(-c2nc(N3CCOCC3)c3sc(CN(C)c4ncc(C(=O)NO)cn4)cc3n2)cn1", "ΔTm at 10 µM / °C": 0.3}
{"COMPOUND": "Cn1cc(-c2[nH]c3cc(NC(=O)[C@H](N)C4CCCCC4)cc4c3c2C=NNC4=O)cn1", "ΔTm at 10 µM / °C": 1.3}
{"COMPOUND": "CCCNC(=O)Nc1ccc(Oc2ncnc3cc(OC)c(OC)cc23)cc1Cl", "ΔTm at 10 µM / °C": 0.1}
{"COMPOUND": "CNCc1ccc(-c2cc(-c3nc(-c4ccc(S(=O)(=O)C(C)C)cc4)cnc3N)on2)cc1", "ΔTm at 10 µM / °C": 0.6}
{"COMPOUND": "Cc1cc(Nc2cc(N3CCN(C)CC3)nc(/C=C/c3ccccc3)n2)n[nH]1", "ΔTm at 10 µM / °C": 0.3}
{"COMPOUND": "CC(C)(C)c1cc(/C=C(\\C#N)C(N)=S)cc(C(C)(C)C)c1O", "ΔTm at 10 µM / °C": -0.1}
{"COMPOUND": "CCn1c(-c2nonc2N)nc2c(C#CC(C)(C)O)ncc(OC[C@H]3CCCNC3)c21", "ΔTm at 10 µM / °C": 0.1}
{"COMPOUND": "CC(C)(C)Cn1c(N)nc2ccc(-c3[nH]c(C(C)(C)C)nc3-c3ccc(F)cc3)nc21", "ΔTm at 10 µM / °C": -0.3}
{"COMPOUND": "CC(C)(O)CC(=O)NCCn1ccc2ncnc(Nc3ccc(Oc4cccc(C(F)(F)F)c4)c(Cl)c3)c21", "ΔTm at 10 µM / °C": -0.5}
{"COMPOUND": "Cc1ccc(Nc2nccc(N(C)c3ccc4c(C)n(C)nc4c3)n2)cc1S(N)(=O)=O", "ΔTm at 10 µM / °C": 0.1}
{"COMPOUND": "CC(C)NC[C@@H](C(=O)N1CCN(c2ncnc3c2[C@H](C)C[C@H]3O)CC1)c1ccc(Cl)cc1", "ΔTm at 10 µM / °C": 0.4}
{"COMPOUND": "Cc1[nH]c(/C=C2\\C(=O)Nc3ccc(S(=O)(=O)Cc4c(Cl)cccc4Cl)cc32)c(C)c1C(=O)N1CCC[C@@H]1CN1CCCC1", "ΔTm at 10 µM / °C": 0.1}
